Assay: Cytotoxicity against mouse RAW264.7 cells after 24 hrs by MTT assay
Type: cell-based
Details: read-out: TC50
assay-metric: CC50 at 24 h (µg/mL)
Use µg/mL as the unit, but write only the number.

Below, each entry is followed by its recorded CC50 at 24 h result.
compound | CC50 at 24 h / µg/mL
Cc1ccc([C@@H]2CC(=O)C[C@@H](c3ccc(C)cc3)C23C(=O)Nc2ccccc23)cc1 | 62.8
O=C1Cc2ccccc2N1 | 126
C[C@@H]1[C@H](O)[C@@H](C)/C=C/C=C/C=C/C=C/C=C/C=C/C=C/[C@H](O[C@@H]2O[C@H](C)[C@@H](O)[C@H](N)[C@@H]2O)C[C@@H]2O[C@](O)(C[C@@H](O)C[C@@H](O)[C@H](O)CC[C@@H](O)C[C@@H](O)CC(=O)O[C@H]1C)C[C@H](O)[C@H]2C(=O)O | 19.6

Input: Field request: CC50 at 24 h | item: O=C(CC(c1ccc(Cl)cc1)C1C(=O)Nc2ccccc21)c1ccccc1 (configuration not stated)
Output: 36.9

Input: Field request: CC50 at 24 h | item: Cc1ccc([C@H](CC(=O)c2ccccc2)[C@H]2C(=O)Nc3ccccc32)cc1 (relative stereo)
Output: 93.3

Input: Field request: CC50 at 24 h | item: COc1ccc([C@H](CC(=O)c2ccccc2)[C@H]2C(=O)Nc3ccccc32)cc1 (relative stereo)
Output: 41

Input: Field request: CC50 at 24 h | item: COc1ccc([C@@H]2CC(=O)C[C@@H](c3ccc(OC)cc3)C23C(=O)Nc2ccccc23)cc1
Output: 80.5
